These data points were gathered from paper PMC4371799.

- Measurement notes: Azacitidine plasma pharmacokinetics, non-compartmental analysis
- Assay type: in vivo, patients
- Condition set: human, plasma, intravenous, azacitidine/oxaliplatin 20/30 mg/m^2; C1D1; n = 3; mean (SD)
Readout: half-life (min)
Expressed in min, but write only the number.

The recorded half-life for entry Nc1ncn([C@@H]2O[C@H](CO)[C@@H](O)[C@H]2O)c(=O)n1 [azacitidine] equals 32.4

====

- Measurement notes: Azacitidine plasma pharmacokinetics, non-compartmental analysis
- Type: in vivo, patients
- Condition set: human, plasma, intravenous, azacitidine/oxaliplatin 40/30 mg/m^2; C1D1; n = 3; mean (SD); read-out: AUCinf
Readout: AUC(0-inf) (ng·h/mL)
Expressed in ng·h/mL, but write only the number.

The recorded AUC(0-inf) for entry Nc1ncn([C@@H]2O[C@H](CO)[C@@H](O)[C@H]2O)c(=O)n1 equals 100
